A collection of binders and their measured IC50 [pM] for RSV A2 Neutralization, Trial 3
testedTarget: RSV-F of RSV subtype A strain A2 (1540) (respiratory syncytial virus subtype A, …, UniProt P03420 26-574)
assayNotes: cell-based or functional assay
Record the result as number plus unit.

Consider the following illustrative entries.
[
  {
    "binder": "H1M3624N (antibody, V domains shown, also called H1M2634N) VH: QVQLEQSGAEVKKPGTSVRISCKASGDIFTGYYMNWVRQAPGQGLEWMGWINTNSGGTYFSQRFQGRVTLTRDTSIRTAYMELSRLRSDDTAVYYCARMFYDILTGSDVFDIWGQGTMVTVSS VL: DIQMTQSPSSLSASVGDRVTITCRASQDIRNDLGWYHQKPGKAPKCLIYGASSLQSGVPSRFSGSGSGTEFTLTISSLQPEDFATYYCLQHKNYMYTFGQGTKLEIK",
    "result": "92 pM"
  },
  {
    "binder": "Control II (motavizumab sequence) (antibody, V domains shown) VH: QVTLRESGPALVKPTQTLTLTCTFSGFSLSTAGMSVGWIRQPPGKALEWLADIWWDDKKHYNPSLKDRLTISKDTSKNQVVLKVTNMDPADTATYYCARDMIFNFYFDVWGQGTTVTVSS VL: DIQMTQSPSTLSASVGDRVTITCSASSRVGYMHWYQQKPGKAPKLLIYDTSKLASGVPSRFSGSGSGTEFTLTISSLQPDDFATYYCFQGSGYPFTFGGGTKVEIKR",
    "result": "23 pM"
  },
  {
    "binder": "Control I (palivizumab sequence) (antibody, V domains shown, also called Control 1; SYNAGIS) VH: QVTLRESGPALVKPTQTLTLTCTFSGFSLSTSGMSVGWIRQPPGKALEWLADIWWDDKKDYNPSLKSRLTISKDTSKNQVVLKVTNMDPADTATYYCARSMITNWYFDVWGAGTTVTVSS VL: DIQMTQSPSTLSASVGDRVTITCKCQLSVGYMHWYQQKPGKAPKLLIYDTSKLASGVPSRFSGSGSGTEFTLTISSLQPDDFATYYCFQGSGYPFTFGGGTKLEIKR",
    "result": "290 pM"
  }
]

Given item H1M3627N (antibody, V domains shown) VH: EVQLVESGGGLVQPGGSLRLSCAASGFTISNYEMNWVRQAPGKGLEWVSYISTSGITIYYADSVQGRFTISRDNAKNSLYLQLNSLRAEDTAVYYCARGYCTNGVCYPHYYYSDMDVWGQGTTVTVSS VL: DIQMTQSPSSLSASVGDRLTITCRASQTISTYLNWFQQKVGNAPKLLIYSTSSLQSGVPARFSGSGSGTDFTLTISSLQPEDFATYYCQQSYSSPPTFGQGTKVEIK , the value recorded as its IC50 [pM] for RSV A2 Neutralization, Trial 3 is 5 pM
